Biological target: T1, Activin A (Homo sapiens (Human), UniProt P08476 311-426)
T1 sequence: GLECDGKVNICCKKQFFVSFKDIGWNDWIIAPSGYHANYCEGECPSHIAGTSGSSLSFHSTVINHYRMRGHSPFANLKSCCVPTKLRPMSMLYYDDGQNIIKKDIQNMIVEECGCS
Experiment: Biacore SPR grade, COS transient conditioned media
Recorded normalized SPR signal by entry

Consider the reported normalized SPR signal for these binders:
ActRIIB-IgG1 Fc R40V, linker GGGGS (Fc fusion, Tested from conditioned media) SGRGEAETRECIYYNANWELEVTNQSGLERCEGEQDKRLHCYASWRNSSGTIELVKKGCWLDDFNCYDRQECVATEENPQVYFCCCEGNFCNERFTHLPEAGGPEVTYEPPPTAPTGGGGSAPELLGGPSVFLFPPKPKDILMISRTPEVTCVVVDVSHEDPEVKFNWYVGGVEVHNAKTKPREEQYNSTYRVVSVLTVLHQDWLNGKEYKCKVSNKALPAPIEKTISKAKGQPREPQVYTLPPSRDELTKNQVSLTCLVKGFYPSDIAVEWESNGQPENNYKTTPPVLDSDGSFFLYSKLTVDKSRWQQGNVFSCSVMHEALHNHYTQKSLSLSPGK
< 5 ru
ActRIIB-IgG1 Fc R40F, linker GGGGS (Fc fusion, Tested from conditioned media) SGRGEAETRECIYYNANWELEFTNQSGLERCEGEQDKRLHCYASWRNSSGTIELVKKGCWLDDFNCYDRQECVATEENPQVYFCCCEGNFCNERFTHLPEAGGPEVTYEPPPTAPTGGGGSAPELLGGPSVFLFPPKPKDILMISRTPEVTCVVVDVSHEDPEVKFNWYVGGVEVHNAKTKPREEQYNSTYRVVSVLTVLHQDWLNGKEYKCKVSNKALPAPIEKTISKAKGQPREPQVYTLPPSRDELTKNQVSLTCLVKGFYPSDIAVEWESNGQPENNYKTTPPVLDSDGSFFLYSKLTVDKSRWQQGNVFSCSVMHEALHNHYTQKSLSLSPGK
< 5 ru
ActRIIB-IgG1 Fc E28R, linker GGGGS (Fc fusion, Tested from conditioned media) SGRGEAETRRCIYYNANWELERTNQSGLERCEGEQDKRLHCYASWRNSSGTIELVKKGCWLDDFNCYDRQECVATEENPQVYFCCCEGNFCNERFTHLPEAGGPEVTYEPPPTAPTGGGGSAPELLGGPSVFLFPPKPKDILMISRTPEVTCVVVDVSHEDPEVKFNWYVGGVEVHNAKTKPREEQYNSTYRVVSVLTVLHQDWLNGKEYKCKVSNKALPAPIEKTISKAKGQPREPQVYTLPPSRDELTKNQVSLTCLVKGFYPSDIAVEWESNGQPENNYKTTPPVLDSDGSFFLYSKLTVDKSRWQQGNVFSCSVMHEALHNHYTQKSLSLSPGK
< 5 ru
ActRIIB-IgG1 Fc E28T, linker GGGGS (Fc fusion, Tested from conditioned media) SGRGEAETRTCIYYNANWELERTNQSGLERCEGEQDKRLHCYASWRNSSGTIELVKKGCWLDDFNCYDRQECVATEENPQVYFCCCEGNFCNERFTHLPEAGGPEVTYEPPPTAPTGGGGSAPELLGGPSVFLFPPKPKDILMISRTPEVTCVVVDVSHEDPEVKFNWYVGGVEVHNAKTKPREEQYNSTYRVVSVLTVLHQDWLNGKEYKCKVSNKALPAPIEKTISKAKGQPREPQVYTLPPSRDELTKNQVSLTCLVKGFYPSDIAVEWESNGQPENNYKTTPPVLDSDGSFFLYSKLTVDKSRWQQGNVFSCSVMHEALHNHYTQKSLSLSPGK
< 5 ru
ActRIIB-IgG1 Fc E28P, linker GGGGS (Fc fusion, Tested from conditioned media) SGRGEAETRPCIYYNANWELERTNQSGLERCEGEQDKRLHCYASWRNSSGTIELVKKGCWLDDFNCYDRQECVATEENPQVYFCCCEGNFCNERFTHLPEAGGPEVTYEPPPTAPTGGGGSAPELLGGPSVFLFPPKPKDILMISRTPEVTCVVVDVSHEDPEVKFNWYVGGVEVHNAKTKPREEQYNSTYRVVSVLTVLHQDWLNGKEYKCKVSNKALPAPIEKTISKAKGQPREPQVYTLPPSRDELTKNQVSLTCLVKGFYPSDIAVEWESNGQPENNYKTTPPVLDSDGSFFLYSKLTVDKSRWQQGNVFSCSVMHEALHNHYTQKSLSLSPGK
< 5 ru
ActRIIB-IgG1 Fc E28S, linker GGGGS (Fc fusion, Tested from conditioned media) SGRGEAETRSCIYYNANWELERTNQSGLERCEGEQDKRLHCYASWRNSSGTIELVKKGCWLDDFNCYDRQECVATEENPQVYFCCCEGNFCNERFTHLPEAGGPEVTYEPPPTAPTGGGGSAPELLGGPSVFLFPPKPKDILMISRTPEVTCVVVDVSHEDPEVKFNWYVGGVEVHNAKTKPREEQYNSTYRVVSVLTVLHQDWLNGKEYKCKVSNKALPAPIEKTISKAKGQPREPQVYTLPPSRDELTKNQVSLTCLVKGFYPSDIAVEWESNGQPENNYKTTPPVLDSDGSFFLYSKLTVDKSRWQQGNVFSCSVMHEALHNHYTQKSLSLSPGK
< 5 ru
ActRIIB-IgG1 Fc E28N, linker GGGGS (Fc fusion, Tested from conditioned media) SGRGEAETRNCIYYNANWELERTNQSGLERCEGEQDKRLHCYASWRNSSGTIELVKKGCWLDDFNCYDRQECVATEENPQVYFCCCEGNFCNERFTHLPEAGGPEVTYEPPPTAPTGGGGSAPELLGGPSVFLFPPKPKDILMISRTPEVTCVVVDVSHEDPEVKFNWYVGGVEVHNAKTKPREEQYNSTYRVVSVLTVLHQDWLNGKEYKCKVSNKALPAPIEKTISKAKGQPREPQVYTLPPSRDELTKNQVSLTCLVKGFYPSDIAVEWESNGQPENNYKTTPPVLDSDGSFFLYSKLTVDKSRWQQGNVFSCSVMHEALHNHYTQKSLSLSPGK
< 5 ru

Please turn your attention to the following entry.
Input line: Given the binder ActRIIB-IgG1 Fc R40T, linker GGGGS (Fc fusion, Tested from conditioned media) SGRGEAETRECIYYNANWELETTNQSGLERCEGEQDKRLHCYASWRNSSGTIELVKKGCWLDDFNCYDRQECVATEENPQVYFCCCEGNFCNERFTHLPEAGGPEVTYEPPPTAPTGGGGSAPELLGGPSVFLFPPKPKDILMISRTPEVTCVVVDVSHEDPEVKFNWYVGGVEVHNAKTKPREEQYNSTYRVVSVLTVLHQDWLNGKEYKCKVSNKALPAPIEKTISKAKGQPREPQVYTLPPSRDELTKNQVSLTCLVKGFYPSDIAVEWESNGQPENNYKTTPPVLDSDGSFFLYSKLTVDKSRWQQGNVFSCSVMHEALHNHYTQKSLSLSPGK , what is its reported normalized SPR signal?
Output line: < 5 ru
